Assay: chemical genetic growth profiling, strain panel (AID 1159580);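 further: tested at 20 µM; growth read once vehicle control cultures reached saturation at 30 °C; 1 = growth at the plate median or of vehicle wells; lower values mean less growth of the strain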
Conditions: S. cerevisiae deletion strains, growth OD, locus YDL035C, strain GPR1, active compounds read low
About 2,000 (36%) of roughly 5,500 compounds were called active. Inconclusive results (about 18%) are left out. The list shows a part of the results.
RESULT_TYPE: normalized growth

[[record]]
smiles_structure = "CC(C)=CCC/C(C)=C/CO"
measured_result = 1.01

[[record]]
smiles_structure = "OC[C@H]1O[C@@H](Oc2ccc(O)cc2)[C@H](O)[C@@H](O)[C@@H]1O"
measured_result = 1

[[record]]
smiles_structure = "C/C(=C\\CO)CC[C@H](C)CCC[C@H](C)CCCC(C)C"
measured_result = 1.07

[[record]]
smiles_structure = "COc1ccc(/C=C/c2cc(O)cc(O[C@@H]3O[C@H](CO)[C@@H](O)[C@H](O)[C@H]3O)c2)cc1"
measured_result = 0.972

[[record]]
smiles_structure = "CN1C(=O)CC[C@H]1c1cccnc1"
measured_result = 1.02

[[record]]
smiles_structure = "C[C@]12CC[C@@H](O)C[C@H]1CCc1ccccc12"
measured_result = 1.01


###

Test: chemical genetic growth profiling, strain panel (AID 1159580);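 further: tested at 20 µM; growth read once vehicle control cultures reached saturation at 30 °C; 1 = growth at the plate median or of vehicle wells; lower values mean less growth of the strain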
Settings: S. cerevisiae deletion strains, growth OD, locus YLR258W, strain gsy2, active compounds read low
The campaign covered roughly 5,500 compounds. About 2,000 (36%) were called active. Inconclusive results (about 18%) are left out. The list shows a part of the results.
RESULT_TYPE: normalized growth

[[record]]
molecule = "COCC1=C(C(=O)OC(C)OC(=O)OC(C)C)N2C(=O)[C@@H](NC(=O)/C(=N\\OC)c3csc(N)n3)[C@H]2SC1 (stereo partly drawn)"
result_type = "normalized growth"
measured_result = 0.978

[[record]]
molecule = "CC12CCC(OC(=O)c3ccccc3)CC1CCc1ccccc12 (stereo not drawn)"
result_type = "normalized growth"
measured_result = 1

[[record]]
molecule = "CCCCCCCCCCCCCCCC(=O)OC[C@H](NC(=O)C(Cl)Cl)[C@H](O)c1ccc([N+](=O)[O-])cc1"
result_type = "normalized growth"
measured_result = 1.03

[[record]]
molecule = "C[N+]12CCC(CC1)C(OC(=O)C(O)(c1ccccc1)c1ccccc1)C2 (stereo not drawn)"
result_type = "normalized growth"
measured_result = 0.979

[[record]]
molecule = "ClC1C(Cl)C(Cl)C(Cl)C(Cl)C1Cl (stereo not drawn)"
result_type = "normalized growth"
measured_result = 0.969

[[record]]
molecule = "O=C(Nc1ccc([N+](=O)[O-])cc1Cl)c1cc(Cl)ccc1O"
result_type = "normalized growth"
measured_result = 0.977

[[record]]
molecule = "CC(C)[C@@H]1CC[C@@H](C)CC1=O"
result_type = "normalized growth"
measured_result = 0.996

[[record]]
molecule = "CC[C@H]1OC(=O)[C@H](C)[C@@H](O[C@H]2C[C@@](C)(OC)[C@@H](O)[C@H](C)O2)[C@H](C)[C@@H](O[C@@H]2O[C@H](C)C[C@H](N(C)C)[C@H]2O)[C@](C)(O)C[C@@H](C)/C(=N/OCOCCOC)[C@H](C)[C@@H](O)[C@]1(C)O"
result_type = "normalized growth"
measured_result = 1.02


###

Assay: chemical genetic growth profiling, strain panel (AID 1159580);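 further: tested at 20 µM; growth read once vehicle control cultures reached saturation at 30 °C; 1 = growth at the plate median or of vehicle wells; lower values mean less growth of the strain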
Conditions: S. cerevisiae deletion strains, growth OD, locus YOL147C, strain pex11, active compounds read low
About 2,000 (36%) of roughly 5,500 compounds were called active. Inconclusive results (about 18%) are left out. The list shows a part of the results.
RESULT_TYPE: normalized growth

[[record]]
molecule = "O=C1C=C(O)c2ccccc2C1=O"
result_type = "normalized growth"
measured_result = 0.955

[[record]]
molecule = "COc1cc(OC)c2c(OC)c(-c3ccc4c(c3)OCO4)c(=O)oc2c1"
result_type = "normalized growth"
measured_result = 0.985

[[record]]
molecule = "NC(=NCCCCCCN=C(N)N=C(N)Nc1ccc(Cl)cc1)N=C(N)Nc1ccc(Cl)cc1"
result_type = "normalized growth"
measured_result = 0.0595

[[record]]
molecule = "COc1cc2cccc(OC)c(=O)c2c(OC)c1OC"
result_type = "normalized growth"
measured_result = 1.01

[[record]]
molecule = "O[C@H]1[C@H](O)[C@@H](O)C2OC[C@H]1O2"
result_type = "normalized growth"
measured_result = 0.997

[[record]]
molecule = "C[C@H]1C(=O)CCC2[C@]3(C)CC[C@@]4(C)C5CC(C)(C)CC[C@]5(C)CC[C@]4(C)C3CC[C@@]21C (stereo partly specified)"
result_type = "normalized growth"
measured_result = 0.987

[[record]]
molecule = "O=C(/C=C/c1ccc(O)cc1)c1ccc(O)cc1O"
result_type = "normalized growth"
measured_result = 0.969

[[record]]
molecule = "COc1cc([C@@H]2c3cc4c(cc3[C@H](O)[C@H]3COC(=O)[C@H]23)OCO4)cc(OC)c1OC"
result_type = "normalized growth"
measured_result = 1

[[record]]
molecule = "COc1ccc(/C=C/c2cc(O)cc(O[C@@H]3O[C@H](CO)[C@@H](O)[C@H](O)[C@H]3O)c2)cc1"
result_type = "normalized growth"
measured_result = 0.988

[[record]]
molecule = "CC(NC(C)(C)C)C(=O)c1cccc(Cl)c1 (stereo unspecified)"
result_type = "normalized growth"
measured_result = 1.04

[[record]]
molecule = "CC(=O)NS(=O)(=O)c1ccc(N)cc1"
result_type = "normalized growth"
measured_result = 0.985

[[record]]
molecule = "CC(C)[C@@H]1CC[C@@H](C)CC1=O"
result_type = "normalized growth"
measured_result = 1.01

[[record]]
molecule = "COC(=O)C(O)[C@H]1C(C)(C)[C@@H](OC(C)=O)[C@@H]2CC3=C4CC(=O)O[C@@H](c5ccoc5)[C@]4(C)CCC3[C@@]1(C)C2=O (stereo partly specified)"
result_type = "normalized growth"
measured_result = 1

[[record]]
molecule = "COc1cc2c(cc1OC)C(C)NCC2 (stereo unspecified)"
result_type = "normalized growth"
measured_result = 0.989

[[record]]
molecule = "CCC[C@@H]1C[C@@H](C(=O)N[C@H]([C@H]2O[C@H](SC)[C@H](O)[C@@H](O)[C@H]2O)[C@H](C)O)N(C)C1"
result_type = "normalized growth"
measured_result = 0.985

[[record]]
molecule = "CC(C)N=C(N)N=C(N)Nc1ccc(Cl)cc1"
result_type = "normalized growth"
measured_result = 1.01

[[record]]
molecule = "CC(=O)OCC1=C(C(=O)O)N2C(=O)[C@@H](NC(=O)CSc3ccncc3)[C@H]2SC1"
result_type = "normalized growth"
measured_result = 1

[[record]]
molecule = "NC(Cc1ccc(Cl)cc1)C(=O)O (stereo unspecified)"
result_type = "normalized growth"
measured_result = 1.01

[[record]]
molecule = "O=C(/C=C/c1ccccc1)c1c(O)cc(O)cc1O"
result_type = "normalized growth"
measured_result = 1.01

[[record]]
molecule = "COc1ccc(-c2c(O)c3c(OC)c4c(cc3oc2=O)OC(C)(C)C=C4)cc1"
result_type = "normalized growth"
measured_result = 0.928

[[record]]
molecule = "O=C(/C=C/c1ccccc1)c1ccc(O[C@@H]2O[C@H](CO)[C@@H](O)[C@H](O)[C@H]2O)cc1O"
result_type = "normalized growth"
measured_result = 0.903

